# ASSAY NOTES: Half life in human CEM/0 cell extracts incubated at 37 degC by RP-18-HPLC method
# Assay type: ADME, CCRF-CEM
Measured half-life accompanies every entry in the list below.
QUANTITY: half-life (min)

COMPOUND	QUANTITY	UNIT TEXT	NUMERIC VALUE
CCCCCCCC(=O)Oc1ccc(COP(=O)(OCc2ccc(OC(=O)CCCC)cc2)OP(=O)(O)OC[C@H]2O[C@@H](n3cc(C)c(=O)[nH]c3=O)C[C@@H]2N=[N+]=[N-])cc1.N (some centres not stated)	half-life	min	49.8
CCCCCCCC(=O)Oc1ccc(COP(=O)(OCc2ccc(OC(=O)CCCC)cc2)OP(=O)(O)OC[C@@H]2C=C[C@H](n3cc(C)c(=O)[nH]c3=O)O2)cc1.N (some centres not stated)	half-life	min	42.6
CCCCCCCCCC(=O)Oc1ccc(COP(=O)(OCc2ccc(OC(=O)CCCC)cc2)OP(=O)(O)OC[C@@H]2C=C[C@H](n3cc(C)c(=O)[nH]c3=O)O2)cc1.N (some centres not stated)	half-life	min	63
CCCCC(=O)Oc1ccc(COP(=O)(OCc2ccc(OC(=O)c3ccc(C(F)(F)F)cc3)cc2)OP(=O)(O)OC[C@H]2O[C@@H](n3cc(C)c(=O)[nH]c3=O)C[C@@H]2N=[N+]=[N-])cc1.N (some centres not stated)	half-life	min	49.8
CCCCCCCC(=O)Oc1ccc(COP(=O)(OCc2ccc(OC(C)=O)cc2)OP(=O)(O)OC[C@H]2O[C@@H](n3cc(C)c(=O)[nH]c3=O)C[C@@H]2N=[N+]=[N-])cc1.N (some centres not stated)	half-life	min	1.2
Cc1ccc(C(=O)Oc2ccc(COP(=O)(O)OP(=O)(O)OC[C@@H]3C=C[C@H](n4cc(C)c(=O)[nH]c4=O)O3)cc2)cc1	half-life	min	870
CCCCCCCCCC(=O)Oc1ccc(COP(=O)(O)OP(=O)(O)OC[C@@H]2C=C[C@H](n3cc(C)c(=O)[nH]c3=O)O2)cc1	half-life	min	50
CCCCCCCCCCCC(=O)Oc1ccc(COP(=O)(OCc2ccc(OC(C)=O)cc2)OP(=O)(O)OC[C@@H]2C=C[C@H](n3cc(C)c(=O)[nH]c3=O)O2)cc1.N (some centres not stated)	half-life	min	9.6
CCCCCCCCCCCC(=O)Oc1ccc(COP(=O)(O)OP(=O)(O)OC[C@@H]2C=C[C@H](n3cc(C)c(=O)[nH]c3=O)O2)cc1	half-life	min	69
CCCCCCCCCC(=O)Oc1ccc(COP(=O)(O)OP(=O)(O)OC[C@H]2O[C@@H](n3cc(C)c(=O)[nH]c3=O)C[C@@H]2N=[N+]=[N-])cc1	half-life	min	50
CCCCCCCCCCCC(=O)Oc1ccc(COP(=O)(OCc2ccc(OC(=O)CCCC)cc2)OP(=O)(O)OC[C@H]2O[C@@H](n3cc(C)c(=O)[nH]c3=O)C[C@@H]2N=[N+]=[N-])cc1.N (some centres not stated)	half-life	min	99
CC(=O)Oc1ccc(COP(=O)(OCc2ccc(OC(=O)c3ccc(C)cc3)cc2)OP(=O)(O)OC[C@@H]2C=C[C@H](n3cc(C)c(=O)[nH]c3=O)O2)cc1.N (some centres not stated)	half-life	min	2.4

====

# ASSAY NOTES: Half life in human CEM/0 cell extracts incubated at 37 degC by RP-18-HPLC method
# Assay type: ADME, CCRF-CEM
QUANTITY: log10(half-life) (log10 of the value in h)

COMPOUND	log10(half-life)
CCCCCCCCCCCC(=O)Oc1ccc(COP(=O)(O)OP(=O)(O)OC[C@H]2O[C@@H](n3cc(C)c(=O)[nH]c3=O)C[C@@H]2N=[N+]=[N-])cc1	0.02
CCCCC(=O)Oc1ccc(COP(=O)(OCc2ccc(OC(=O)c3ccc(C)cc3)cc2)OP(=O)(O)OC[C@@H]2C=C[C@H](n3cc(C)c(=O)[nH]c3=O)O2)cc1.N (stereo partly specified)	-0.02
Cc1cn([C@H]2C=C[C@@H](COP(=O)(O)OP(=O)(O)OCc3ccc(OC(=O)c4ccc(C(F)(F)F)cc4)cc3)O2)c(=O)[nH]c1=O	1.06
CCCCC(=O)Oc1ccc(COP(=O)(OCc2ccc(OC(=O)c3ccc(C(F)(F)F)cc3)cc2)OP(=O)(O)OC[C@@H]2C=C[C@H](n3cc(C)c(=O)[nH]c3=O)O2)cc1.N (stereo partly specified)	-0.06
CC(=O)Oc1ccc(COP(=O)(OCc2ccc(OC(=O)c3ccc(C(F)(F)F)cc3)cc2)OP(=O)(O)OC[C@H]2O[C@@H](n3cc(C)c(=O)[nH]c3=O)C[C@@H]2N=[N+]=[N-])cc1.N (stereo partly specified)	-1.40
CCCCCCCCCCCC(=O)Oc1ccc(COP(=O)(OCc2ccc(OC(=O)CCCC)cc2)OP(=O)(O)OC[C@@H]2C=C[C@H](n3cc(C)c(=O)[nH]c3=O)O2)cc1.N (stereo partly specified)	0.28
